The reported measurements were obtained from patent US20120035214A1.

Target: Human recombinant renin (Homo sapiens, UniProt P00797)
Sequence (P00797 67-406): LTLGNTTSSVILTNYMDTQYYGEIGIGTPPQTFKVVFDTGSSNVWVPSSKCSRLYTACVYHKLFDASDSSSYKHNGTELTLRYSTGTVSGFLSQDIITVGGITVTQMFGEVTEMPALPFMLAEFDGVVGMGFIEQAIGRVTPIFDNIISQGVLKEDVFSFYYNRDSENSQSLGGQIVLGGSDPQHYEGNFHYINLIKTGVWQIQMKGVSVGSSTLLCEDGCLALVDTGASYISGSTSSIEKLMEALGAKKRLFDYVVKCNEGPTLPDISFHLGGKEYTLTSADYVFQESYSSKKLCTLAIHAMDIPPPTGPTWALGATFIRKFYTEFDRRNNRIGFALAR
Test: Inhibition of human recombinant renin (QFRET, buffer)
Details: buffer: 50 mM MOPS pH 7.4, 100 mM NaCl, 0.002% Tween 20; 37° C., 3 hours
endpoint: IC50 (nM)

>  <compound>
Cc1cc(-c2ccccc2CCNS(C)(=O)=O)ccc1[C@H]1CNCC[C@@H]1c1cc(F)cc(F)c1 (racemic) [Structure 19]

>  <unit_abbrev>
nM

>  <numeric_value>
71

$$$$
>  <compound>
COCCCc1ccccc1-c1ccc([C@H]2CNCC[C@@H]2c2ccc(N)nc2)c(Cl)c1 (racemic) [Structure 52]

>  <unit_abbrev>
nM

>  <numeric_value>
150

$$$$
>  <compound>
COC[C@H](C)COCc1ccc([C@@]2(O)CCNC[C@@H]2c2cnc(-c3ccccc3CCNC(C)=O)cc2C)cc1 [Structure 119]

>  <unit_abbrev>
nM

>  <numeric_value>
0.15

$$$$
>  <compound>
CC(=O)NCCc1ccccc1-c1ccc([C@H]2CNCC[C@]2(O)c2ccc(OC(F)(F)F)c(F)c2)c(C)c1 [Structure 132]

>  <unit_abbrev>
nM

>  <numeric_value>
0.4

$$$$
>  <compound>
COCC(F)(F)COCc1ccc([C@@]2(O)CCNC[C@@H]2c2ccc(-c3ccccc3CCNC(C)=O)cc2C)cc1 [Structure 121]

>  <unit_abbrev>
nM

>  <numeric_value>
0.08

$$$$

(P) COC[C@H](C)COCc1ccc([C@@]2(O)CCNC[C@@H]2c2ccc(-c3ccccc3CCN3CCOC3=O)cc2C)cc1 [Structure 125]
(Q) O[C@]1(c2ccc(F)c(F)c2)CCNC[C@@H]1c1onc(-c2cccc3ccccc23)c1Br [Structure 75]
(R) O=C(CO)NCCc1ccccc1-c1onc([C@H]2CNCC[C@]2(O)c2ccc(F)c(F)c2)c1Br [Structure 88]
(S) O[C@]1(c2ccc(F)c(F)c2)CCNC[C@@H]1c1cc(-c2c(Cl)cccc2Cl)on1 [Structure 79]
(T) O[C@]1(c2ccc(F)c(F)c2)CCNC[C@@H]1c1cn(-c2ccc(F)cc2Br)nn1 [Structure 91]
# input Hey, quick one: sort these by IC50, largest value first please. Answer by listing the labels in the requested order.
# output T, S, P, R, Q
